Target: CYP1A1 (Homo sapiens)
Assay: Inhibition of recombinant human CYP1A1 at 3 uM incubated for 25 mins using 7-ethyl-O-resorufin substrate in presence of NADPH regenerating system by fluorescence based ethoxyresorufin-O-deethylase assay
Assay type: ADME
Conditions: recombinant human CYP1A1, probe 7-ethyl-O-resorufin (7-ethoxyresorufin)
Please enter y where inhibition at 25 min, 3 µM is greater than or equal to 8%, and n where it is lower.

given-smiles: C[C@]12CC[C@@H]3c4cc(-c5ccc(F)cc5)c(O)cc4CC[C@H]3[C@@H]1CC[C@@H]2O
discrete-label: n
//
given-smiles: C[C@]12CC[C@@H]3c4cc(-c5cccc(Cl)c5)c(O)cc4CC[C@H]3[C@@H]1CCC2=O
discrete-label: y
//
given-smiles: C[C@]12CC[C@@H]3c4cc(-c5ccccc5)c(O)cc4CC[C@H]3[C@@H]1CC[C@@H]2O
discrete-label: y
//
given-smiles: C[C@]12CC[C@@H]3c4cc(-c5ccc(Cl)cc5)c(O)cc4CC[C@H]3[C@@H]1CC[C@@H]2O
discrete-label: y
//
given-smiles: COc1ccc(-c2cc3c(cc2O)CC[C@@H]2[C@@H]3CC[C@]3(C)[C@@H](O)CC[C@@H]23)cc1
discrete-label: y
//
given-smiles: C[C@]12CC[C@@H]3c4cc(-c5ccc(Cl)cc5)c(O)cc4CC[C@H]3[C@@H]1CCC2=O
discrete-label: n
//
given-smiles: COc1ccc(-c2cc3c(cc2OC)CC[C@@H]2[C@@H]3CC[C@]3(C)C(=O)CC[C@@H]23)cc1
discrete-label: n
//
given-smiles: C[C@]12CC[C@@H]3c4cc(-c5cccc(F)c5)c(O)cc4CC[C@H]3[C@@H]1CCC2=O
discrete-label: y
//
given-smiles: C#C[C@]1(O)CC[C@H]2[C@@H]3CCc4cc(O)c(-c5ccc(OC)cc5)cc4[C@H]3CC[C@@]21C
discrete-label: y

----------
Target: CYP1A1 (Homo sapiens, UniProt P04798)
Sequence (P04798 whole entry): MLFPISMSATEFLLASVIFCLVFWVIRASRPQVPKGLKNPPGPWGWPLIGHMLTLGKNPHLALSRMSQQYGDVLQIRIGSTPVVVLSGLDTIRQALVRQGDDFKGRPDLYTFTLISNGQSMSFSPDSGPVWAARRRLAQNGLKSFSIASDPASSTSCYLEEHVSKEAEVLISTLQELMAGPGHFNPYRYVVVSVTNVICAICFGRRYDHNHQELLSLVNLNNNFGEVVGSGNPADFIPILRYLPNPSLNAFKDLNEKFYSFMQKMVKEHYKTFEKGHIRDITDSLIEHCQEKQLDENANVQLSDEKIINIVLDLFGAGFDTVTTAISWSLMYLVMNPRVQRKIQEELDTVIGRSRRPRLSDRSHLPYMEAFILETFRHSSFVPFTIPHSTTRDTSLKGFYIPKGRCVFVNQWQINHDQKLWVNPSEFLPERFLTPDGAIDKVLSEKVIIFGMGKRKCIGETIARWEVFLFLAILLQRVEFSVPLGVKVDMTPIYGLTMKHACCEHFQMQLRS
Test: Inhibition of recombinant human CYP1A1 at 3 uM incubated for 25 mins using 7-ethyl-O-resorufin substrate in presence of NADPH regenerating system by fluorescence based ethoxyresorufin-O-deethylase assay
Format: ADME
Conditions: recombinant human CYP1A1, probe 7-ethyl-O-resorufin (7-ethoxyresorufin)
Mark 1.0 for reported inhibition at 25 min, 3 µM of 50% or greater; mark 0.0 for anything smaller.

given-smiles: O=c1cc(-c2ccccc2)oc2c1ccc1ccccc12
discrete-label: 1.0
--
given-smiles: C[C@]12CC[C@@H]3c4cc(-c5ccncc5)c(O)cc4CC[C@H]3[C@@H]1CC[C@@H]2O
discrete-label: 0.0
--
given-smiles: C[C@]12CC[C@@H]3c4cc(-c5cccc(O)c5)c(O)cc4CC[C@H]3[C@@H]1CC[C@@H]2O
discrete-label: 1.0
--
given-smiles: C#C[C@]1(O)CC[C@H]2[C@@H]3CCc4cc(OC)c(-c5ccc(OC)cc5)cc4[C@H]3CC[C@@]21C
discrete-label: 0.0
--
given-smiles: C[C@]12CC[C@@H]3c4cc(-c5cccc(F)c5)c(O)cc4CC[C@H]3[C@@H]1CC[C@@H]2O
discrete-label: 0.0
--
given-smiles: COc1ccc(-c2cc3c(cc2OC)CC[C@@H]2[C@@H]3CC[C@]3(C)[C@@H](OC)CC[C@@H]23)cc1
discrete-label: 0.0
--
given-smiles: C[C@]12CC[C@@H]3c4cc(-c5ccc(F)c(F)c5)c(O)cc4CC[C@H]3[C@@H]1CC[C@@H]2O
discrete-label: 0.0
--
given-smiles: C[C@]12CC[C@@H]3c4cc(-c5cccc(O)c5)c(O)cc4CC[C@H]3[C@@H]1CCC2=O
discrete-label: 0.0
--
given-smiles: C[C@]12CC[C@@H]3c4cc(-c5ccccc5)c(O)cc4CC[C@H]3[C@@H]1CCC2=O
discrete-label: 0.0
--
given-smiles: C[C@]12CC[C@@H]3c4ccc(SCc5cccnc5)cc4CC[C@H]3[C@@H]1CCC2=O
discrete-label: 0.0
--
given-smiles: COc1ccc(-c2cc3c(cc2OC)CC[C@@H]2[C@@H]3CC[C@@]3(C)[C@H]2CC[C@]3(C)O)cc1
discrete-label: 0.0
--
given-smiles: COc1ccc(-c2cc3c(cc2O)CC[C@@H]2[C@@H]3CC[C@]3(C)C(=O)CC[C@@H]23)cc1
discrete-label: 0.0
--
given-smiles: C[C@]12CC[C@@H]3c4cc(-c5cccnc5)c(O)cc4CC[C@H]3[C@@H]1CC[C@@H]2O
discrete-label: 1.0
--
given-smiles: C[C@]12CC[C@@H]3c4cc(-c5ccc(F)c(F)c5)c(O)cc4CC[C@H]3[C@@H]1CCC2=O
discrete-label: 0.0

----------
Biological target: CYP1B1 (Homo sapiens)
Assay: Inhibition of recombinant human CYP1B1 at 3 uM incubated for 45 mins using 7-ethyl-O-resorufin substrate in presence of NADPH regenerating system by fluorescence based ethoxyresorufin-O-deethylase assay
Conditions: recombinant human CYP1B1, probe 7-ethyl-O-resorufin (7-ethoxyresorufin)
Assign Criterion met whenever inhibition at 0.75 h, 3 µM does not fall below 30%; assign Criterion not met whenever it does.

compound: C[C@]12CC[C@@H]3c4cc(-c5cccnc5)c(O)cc4CC[C@H]3[C@@H]1CCC2=O
discrete-label: Criterion met
//
compound: COc1ccc(-c2cc3c(cc2O)CC[C@@H]2[C@@H]3CC[C@]3(C)C(=O)CC[C@@H]23)cc1
discrete-label: Criterion met
//
compound: C[C@]12CC[C@@H]3c4cc(-c5ccc(F)c(F)c5)c(O)cc4CC[C@H]3[C@@H]1CCC2=O
discrete-label: Criterion met
//
compound: C[C@]12CC[C@@H]3c4ccc(S(C)(=O)=O)cc4CC[C@H]3[C@@H]1CCC2=O
discrete-label: Criterion not met
//
compound: COc1ccc(-c2cc3c(cc2OC)CC[C@@H]2[C@@H]3CC[C@@]3(C)[C@H]2CC[C@]3(C)O)cc1
discrete-label: Criterion met
//
compound: C[C@]12CC[C@@H]3c4cc(-c5ccncc5)c(O)cc4CC[C@H]3[C@@H]1CC[C@@H]2O
discrete-label: Criterion met
//
compound: C[S+]([O-])c1ccc2c(c1)CC[C@@H]1[C@@H]2CC[C@]2(C)[C@@H](O)CC[C@@H]12 (stereo partly drawn)
discrete-label: Criterion not met
//
compound: CSc1ccc2c(c1)CC[C@@H]1[C@@H]2CC[C@]2(C)[C@@H](O)CC[C@@H]12
discrete-label: Criterion not met

----------
Biological target: CYP1B1 (Homo sapiens, UniProt Q16678)
Sequence (Q16678 whole entry): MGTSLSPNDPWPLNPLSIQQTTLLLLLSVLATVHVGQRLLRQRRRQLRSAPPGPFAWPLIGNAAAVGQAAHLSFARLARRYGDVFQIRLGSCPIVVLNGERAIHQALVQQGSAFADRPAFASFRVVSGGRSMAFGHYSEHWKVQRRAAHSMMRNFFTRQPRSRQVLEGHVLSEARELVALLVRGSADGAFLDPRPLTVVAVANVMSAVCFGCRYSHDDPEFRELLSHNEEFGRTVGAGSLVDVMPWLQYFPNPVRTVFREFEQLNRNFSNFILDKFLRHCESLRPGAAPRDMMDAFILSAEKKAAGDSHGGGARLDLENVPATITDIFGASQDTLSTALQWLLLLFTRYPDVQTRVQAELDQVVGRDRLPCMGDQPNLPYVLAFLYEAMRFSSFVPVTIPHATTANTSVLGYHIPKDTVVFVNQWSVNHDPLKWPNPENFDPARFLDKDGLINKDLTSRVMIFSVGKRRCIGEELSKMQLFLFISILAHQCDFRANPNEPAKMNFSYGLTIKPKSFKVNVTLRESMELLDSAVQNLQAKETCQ
Test: Inhibition of recombinant human CYP1B1 at 3 uM incubated for 45 mins using 7-ethyl-O-resorufin substrate in presence of NADPH regenerating system by fluorescence based ethoxyresorufin-O-deethylase assay
Details: recombinant human CYP1B1, probe 7-ethyl-O-resorufin (7-ethoxyresorufin)
inhibition at 0.75 h, 3 µM reference

given-smiles: C[C@]12CC[C@@H]3c4cc(-c5ccc(F)cc5)c(O)cc4CC[C@H]3[C@@H]1CCC2=O
inhibition at 0.75 h, 3 µM / %: 101
--
given-smiles: C[C@]12CC[C@@H]3c4cc(-c5cccc(O)c5)c(O)cc4CC[C@H]3[C@@H]1CCC2=O
inhibition at 0.75 h, 3 µM / %: 103
--
given-smiles: C#C[C@]1(O)CC[C@H]2[C@@H]3CCc4cc(O)c(-c5ccc(OC)cc5)cc4[C@H]3CC[C@@]21C
inhibition at 0.75 h, 3 µM / %: 94
--
given-smiles: C[C@]12CC[C@@H]3c4cc(-c5ccc(O)cc5)c(O)cc4CC[C@H]3[C@@H]1CCC2=O
inhibition at 0.75 h, 3 µM / %: 30

----------
Molecular target: CYP1B1 (Homo sapiens, UniProt Q16678)
Sequence (Q16678 whole entry): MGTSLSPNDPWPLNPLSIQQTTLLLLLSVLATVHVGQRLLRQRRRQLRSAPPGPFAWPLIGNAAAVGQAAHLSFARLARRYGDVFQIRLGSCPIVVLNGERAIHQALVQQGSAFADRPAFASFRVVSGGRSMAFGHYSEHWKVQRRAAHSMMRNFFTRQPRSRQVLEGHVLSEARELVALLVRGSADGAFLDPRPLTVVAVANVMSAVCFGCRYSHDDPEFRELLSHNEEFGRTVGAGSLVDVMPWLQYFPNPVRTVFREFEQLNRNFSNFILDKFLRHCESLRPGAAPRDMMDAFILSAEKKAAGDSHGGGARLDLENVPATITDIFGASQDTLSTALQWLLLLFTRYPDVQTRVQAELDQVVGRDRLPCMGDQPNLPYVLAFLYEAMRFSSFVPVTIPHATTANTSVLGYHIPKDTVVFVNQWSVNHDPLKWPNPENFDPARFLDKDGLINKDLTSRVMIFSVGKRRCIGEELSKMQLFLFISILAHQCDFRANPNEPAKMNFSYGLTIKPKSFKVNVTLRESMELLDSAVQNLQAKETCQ
Assay: Inhibition of recombinant human CYP1B1 at 3 uM incubated for 45 mins using 7-ethyl-O-resorufin substrate in presence of NADPH regenerating system by fluorescence based ethoxyresorufin-O-deethylase assay
Conditions: recombinant human CYP1B1, probe 7-ethyl-O-resorufin (7-ethoxyresorufin)

compound: C[C@]12CC[C@@H]3c4cc(-c5cccc(Cl)c5)c(O)cc4CC[C@H]3[C@@H]1CC[C@@H]2O
unit-abbrev: %
inhibition at 0.75 h, 3 µM: 100
--
compound: COc1ccc(-c2cc3c(cc2OC)CC[C@@H]2[C@@H]3CC[C@]3(C)[C@@H](OC)CC[C@@H]23)cc1
unit-abbrev: %
inhibition at 0.75 h, 3 µM: 20
--
compound: C[S+]([O-])c1ccc2c(c1)CC[C@@H]1[C@@H]2CC[C@]2(C)C(=O)CC[C@@H]12 (some centres not stated)
unit-abbrev: %
inhibition at 0.75 h, 3 µM: 57
--
compound: C[C@]12CC[C@@H]3c4cc(-c5cccc(O)c5)c(O)cc4CC[C@H]3[C@@H]1CC[C@@H]2O
unit-abbrev: %
inhibition at 0.75 h, 3 µM: 100
--
compound: COc1cccc(-c2cc3c(cc2O)CC[C@@H]2[C@@H]3CC[C@]3(C)C(=O)CC[C@@H]23)c1
unit-abbrev: %
inhibition at 0.75 h, 3 µM: 81
--
compound: C[C@]12CC[C@@H]3c4cc(-c5ccc(Cl)cc5)c(O)cc4CC[C@H]3[C@@H]1CCC2=O
unit-abbrev: %
inhibition at 0.75 h, 3 µM: 101
--
compound: O=c1cc(-c2ccccc2)oc2c1ccc1ccccc12
unit-abbrev: %
inhibition at 0.75 h, 3 µM: 101
--
compound: C#C[C@]1(O)CC[C@H]2[C@@H]3CCc4cc(OC)c(-c5ccc(OC)cc5)cc4[C@H]3CC[C@@]21C
unit-abbrev: %
inhibition at 0.75 h, 3 µM: 55
--
compound: C[C@]12CC[C@@H]3c4cc(-c5ccncc5)c(O)cc4CC[C@H]3[C@@H]1CCC2=O
unit-abbrev: %
inhibition at 0.75 h, 3 µM: 55
--
compound: C[C@]12CC[C@@H]3c4cc(-c5ccccc5)c(O)cc4CC[C@H]3[C@@H]1CC[C@@H]2O
unit-abbrev: %
inhibition at 0.75 h, 3 µM: 101
--
compound: C[C@]12CC[C@@H]3c4ccc(S(C)(=O)=O)cc4CC[C@H]3[C@@H]1CC[C@@H]2O
unit-abbrev: %
inhibition at 0.75 h, 3 µM: 5
--
compound: C[C@]12CC[C@@H]3c4cc(-c5ccc(F)c(F)c5)c(O)cc4CC[C@H]3[C@@H]1CC[C@@H]2O
unit-abbrev: %
inhibition at 0.75 h, 3 µM: 100
